Origin of the recorded values: patent US10336702B2

A collection of compounds and their measured IC50
tgt: Akt1 (Homo sapiens)
Construct: unspecified tag, removed (detagged) (cleaved yes); purchased SignalChem and Proteros (Akt1); Merck Millipore (PDK1) 14-452 (PDK1); none given for Akt1
experiment notes: Akt activation assay (PDK1-mediated activation, LANCE Ultra crosstide TR-FRET), Akt1
Type: biochemical
run parameters: read-out: Biological Assay 1 IC50 (nM) Akt1
Description: Biological Assay 1: Akt Activation Assay Addition of a Europium-labelled antibody specific to the phosphopeptide allows energy transfer from the Europium donor to the Ultra Ulight™ acceptor if close enough in proximity. […] 5 μL enzyme in 1×AB was incubated with 2.5 μL test compound. […] Plates read with the EnVision® Multilabel Plate Reader, excitation at 320 nm and emission at 665 nm and 615 nm. Compound IC50 was determined using a 4-parameter equation.
reported property: IC50

> print(dat)
                                    compound                  tgt  assay.result
 1  CC(=O)N(C)[C@H]1CC[C@H](CC(=O)Nc2cc(-c3ccccc3)c(-c3ccc(C4(N)CCC4)cc3)nn2)CC1  Akt1 (Homo sapiens)      11000 nM
 2  COC(=O)N(C)[C@H]1CC[C@H](CC(=O)Nc2cc(-c3ccsc3)c(-c3ccc(C4(N)CC4)c(F)c3)nn2)CC1  Akt1 (Homo sapiens)    > 30000 nM
 3  CCC(=O)N(C(C)C)[C@H]1CC[C@H](CC(=O)Nc2cc(-c3ccccc3)c(-c3ccc([C@]4(N)C[C@](C)(O)C4)cc3)cn2)CC1  Akt1 (Homo sapiens)       8100 nM
 4  CN(C(=O)C1CC1)[C@H]1CC[C@H](CC(=O)Nc2cc(-c3ccccc3)c(-c3ccc([C@]4(N)C[C@](C)(O)C4)cc3)cn2)CC1  Akt1 (Homo sapiens)      12000 nM
 5  CN(C(=O)C1(C)CC1)[C@H]1CC[C@H](CC(=O)Nc2cnc(-c3ccc(C(C)(C)N)cc3)c(-c3ccccc3)c2)CC1  Akt1 (Homo sapiens)    > 30000 nM
 6  CC(C)C(=O)N[C@H]1CC[C@H](CC(=O)Nc2cnc(-c3ccc(C(C)(C)N)cc3)c(-c3ccccc3)c2)CC1  Akt1 (Homo sapiens)    > 30000 nM
 7  CC(=O)N(C)[C@H]1CC[C@H](CC(=O)Nc2cnc(-c3ccc([C@H](C)N)cc3)c(-c3ccccc3)c2)CC1  Akt1 (Homo sapiens)    > 30000 nM
 8  CN(C(=O)C1CC1)[C@H]1CC[C@H](CC(=O)Nc2cc(-c3ccccc3)c(-c3ccc(C(C)(C)N)cc3)nn2)CC1  Akt1 (Homo sapiens)    > 30000 nM
 9  CC(=O)N(C)[C@H]1CC[C@H](CC(=O)Nc2cnc(-c3ccc(C(C)(C)N)cc3)c(-c3ccsc3)c2)CC1  Akt1 (Homo sapiens)    > 30000 nM
10  COCC(=O)N(C)[C@H]1CC[C@H](CC(=O)Nc2cc(-c3ccccc3)c(-c3ccc([C@]4(N)C[C@](C)(O)C4)cc3)cn2)CC1  Akt1 (Homo sapiens)    > 30000 nM
11  CN(C(=O)C1CCC1)[C@H]1CC[C@H](CC(=O)Nc2cc(-c3ccccc3)c(-c3ccc(C4(N)CC4)cc3)nn2)CC1  Akt1 (Homo sapiens)    > 19000 nM
12  CCC(=O)N(C)[C@H]1CC[C@H](CC(=O)Nc2cc(-c3ccsc3)c(-c3ccc(C(C)(C)N)cc3)nn2)CC1  Akt1 (Homo sapiens)    > 30000 nM
13  CN(C(=O)CC(C)(C)C)[C@H]1CC[C@H](CC(=O)Nc2cnc(-c3ccc(C(C)(C)N)cc3)c(-c3ccccc3)c2)CC1  Akt1 (Homo sapiens)    > 30000 nM
14  CC(=O)N(C)[C@H]1CC[C@H](CC(=O)Nc2cc(-c3ccccc3)c(-c3ccc([C@]4(N)C[C@](C)(O)C4)cc3)nn2)CC1  Akt1 (Homo sapiens)       1600 nM
15  NC1(c2ccc(-c3ncc(NC(=O)C[C@H]4CC[C@H](NC(=O)C5CC5)CC4)cc3-c3ccccc3)cc2)CCC1  Akt1 (Homo sapiens)       3100 nM
16  CC(C)(C)C(=O)N[C@H]1CC[C@H](CC(=O)Nc2cnc(-c3ccc(C(C)(C)N)cc3)c(-c3ccccc3)c2)CC1  Akt1 (Homo sapiens)    > 30000 nM
17  COC(=O)N(C)[C@H]1CC[C@H](CC(=O)Nc2cc(-c3ccccc3)c(-c3ccc(C4(N)CC4)c(F)c3)nn2)CC1  Akt1 (Homo sapiens)    > 30000 nM
18  CC(=O)N(C)[C@H]1CC[C@H](CC(=O)Nc2cc(-c3ccccc3)c(-c3ccc(C(C)(C)N)cc3)cn2)CC1  Akt1 (Homo sapiens)    > 30000 nM
19  CC(=O)N(C)[C@H]1CC[C@H](CC(=O)Nc2cc(-c3ccsc3)c(-c3ccc([C@]4(N)C[C@](C)(O)C4)cc3)cn2)CC1  Akt1 (Homo sapiens)       3900 nM
20  COC(=O)N(C)[C@H]1CC[C@H](C(C)C(=O)Nc2cnc(-c3ccc(C(C)(C)N)cc3)c(-c3ccccc3)c2)CC1 (some centres unmarked)  Akt1 (Homo sapiens)    > 30000 nM
21  CC(=O)NC1CCC(CC(=O)Nc2cnc(-c3ccc([C@]4(N)C[C@](C)(O)C4)cc3)c(-c3ccccc3)c2)CC1 (some centres unmarked)  Akt1 (Homo sapiens)        980 nM
22  CC(C)(N)c1ccc(-c2ncc(NC(=O)C[C@H]3CC[C@H](NC(=O)C4CCC4)CC3)cc2-c2ccccc2)cc1  Akt1 (Homo sapiens)    > 30000 nM
23  CCC(=O)N(C)[C@H]1CC[C@H](CC(=O)Nc2cnc(-c3ccc(C4(N)CC4)c(F)c3)c(-c3ccccc3)c2)CC1  Akt1 (Homo sapiens)    > 30000 nM

---

tgt: Akt1 (Homo sapiens, UniProt P31749)
Construct: unspecified tag, removed (detagged) (cleaved yes); purchased SignalChem and Proteros (Akt1); Merck Millipore (PDK1) 14-452 (PDK1); none given for Akt1
Sequence (P31749 whole entry): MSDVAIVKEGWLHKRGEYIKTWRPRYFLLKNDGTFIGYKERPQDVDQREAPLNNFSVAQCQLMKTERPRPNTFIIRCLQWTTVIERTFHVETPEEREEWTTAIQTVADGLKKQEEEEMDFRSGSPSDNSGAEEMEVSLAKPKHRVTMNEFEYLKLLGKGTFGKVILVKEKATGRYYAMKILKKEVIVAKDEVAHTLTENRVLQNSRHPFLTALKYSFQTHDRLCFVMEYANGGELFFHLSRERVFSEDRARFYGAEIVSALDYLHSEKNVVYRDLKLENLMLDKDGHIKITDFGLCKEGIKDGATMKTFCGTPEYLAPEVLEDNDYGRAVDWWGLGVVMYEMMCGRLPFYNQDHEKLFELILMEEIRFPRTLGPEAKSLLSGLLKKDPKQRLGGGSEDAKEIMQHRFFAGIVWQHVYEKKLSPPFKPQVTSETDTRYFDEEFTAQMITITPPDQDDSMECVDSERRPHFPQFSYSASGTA
experiment notes: Akt activation assay (PDK1-mediated activation, LANCE Ultra crosstide TR-FRET), Akt1
Format: biochemical
run parameters: read-out: Biological Assay 1 IC50 (nM) Akt1
reported property: IC50 (nM)

> print(dat)
                              line.notation                                  tgt  reported.property  unit.descriptor  value.operator  assay.result
1  CC(=O)N(C)[C@H]1CC[C@H](CC(=O)Nc2cnc(-c3ccc([C@H](N)C(F)F)cc3)c(-c3ccccc3)c2)CC1  Akt1 (Homo sapiens, UniProt P31749)               IC50               nM               >         30000
2  CC(=O)N[C@H]1CC[C@H](CC(=O)Nc2cnc(-c3ccc([C@]4(N)C[C@H](F)C4)cc3)c(-c3ccccc3)c2)CC1  Akt1 (Homo sapiens, UniProt P31749)               IC50               nM               =          7700
3  COC(=O)N(C)[C@H]1CC[C@H](CC(=O)Nc2cnc(-c3ccc(C(C)(C)N)cc3)c(-c3ccccc3)c2)CC1  Akt1 (Homo sapiens, UniProt P31749)               IC50               nM               >         29000
4  CN([C@H]1CC[C@H](CC(=O)Nc2cnc(-c3ccc(C(C)(C)N)cc3)c(-c3ccccc3F)c2)CC1)S(C)(=O)=O  Akt1 (Homo sapiens, UniProt P31749)               IC50               nM               >         30000
5  C[C@]1(O)C[C@@](N)(c2ccc(-c3nnc(NC(=O)C[C@H]4CC[C@H](N5CCCCC5=O)CC4)cc3-c3ccccc3)cc2)C1  Akt1 (Homo sapiens, UniProt P31749)               IC50               nM               =          2600
6  COC(=O)N(C)[C@H]1CC[C@H](CC(=O)Nc2cc(-c3ccccc3)c(-c3ccc([C@]4(N)C[C@](C)(O)C4)cc3)nn2)CC1  Akt1 (Homo sapiens, UniProt P31749)               IC50               nM               =          1400

---

tgt: Akt1 (Homo sapiens, UniProt P31749)
Construct: unspecified tag, removed (detagged) (cleaved yes); purchased SignalChem and Proteros (Akt1); Merck Millipore (PDK1) 14-452 (PDK1); none given for Akt1
experiment notes: Akt activation assay (PDK1-mediated activation, LANCE Ultra crosstide TR-FRET), Akt1
Assay type: biochemical
run parameters: read-out: Biological Assay 1 IC50 (nM) Akt1
compounds and their reported IC50
reported property: IC50

compound	assay result
COC(=O)N(C)[C@H]1CC[C@H](CC(=O)Nc2cc(-c3ccccc3F)c(-c3ccc(C4(N)CCC4)cc3)cn2)CC1 [Example A63]	> 30000 nM
CC(=O)N(C)[C@H]1CC[C@H](CC(=O)Nc2cc(-c3ccccc3)c(-c3ccc(C4(N)CC4)c(F)c3)nn2)CC1 [Example A54]	> 30000 nM
CC(=O)N(C(C)C)[C@H]1CC[C@H](CC(=O)Nc2cnc(-c3ccc(C(C)(C)N)cc3)c(-c3ccccc3)c2)CC1 [Example A44]	> 30000 nM
CCOC(=O)N(C)[C@H]1CC[C@H](CC(=O)Nc2cnc(-c3ccc(C(C)(C)N)cc3)c(-c3ccccc3)c2)CC1 [Example A99]	> 27000 nM
CN([C@H]1CC[C@H](CC(=O)Nc2cnc(-c3ccc(C4(N)CCC4)cc3)c(-c3ccsc3)c2)CC1)S(C)(=O)=O [Example 17]	> 26000 nM
CCC(=O)N(C)[C@H]1CC[C@H](CC(=O)Nc2cc(-c3ccccc3)c(-c3ccc([C@]4(N)C[C@](C)(O)C4)c(F)c3)nn2)CC1 [Example 126]	> 30000 nM
CN([C@H]1CC[C@H](CC(=O)Nc2cnc(-c3ccc(C(C)(C)N)cc3)c(-c3ccccc3)c2)CC1)S(C)(=O)=O [Example A25]	> 30000 nM
CCOC(=O)N(C)[C@H]1CC[C@H](CC(=O)Nc2cc(-c3ccccc3)c(-c3ccc([C@]4(N)C[C@](C)(O)C4)cc3)cn2)CC1 [Example A73]	8800 nM
COC(=O)N[C@H]1CC[C@H](CC(=O)Nc2cnc(-c3ccc(C4(N)CC(F)(F)C4)cc3)c(-c3ccccc3)c2)CC1 [Example A4]	11000 nM
NC1(c2ccc(-c3cnc(NC(=O)C[C@H]4CC[C@H](N5CCCC5=O)CC4)cc3-c3ccccc3)cc2)CC1 [Example A83]	> 30000 nM
CC(C)(N)c1ccc(-c2nnc(NC(=O)C[C@H]3CC[C@H](N4CCOC4=O)CC3)nc2-c2ccccc2)cc1 [Example 69]	> 30000 nM
COC(=O)N(C(C)C)[C@H]1CC[C@H](CC(=O)Nc2cnc(-c3ccc(C4(N)CCC4)cc3)c(-c3ccccc3)c2)CC1 [Example 51]	8900 nM
COC(=O)N(C)[C@H]1CC[C@H](CC(=O)Nc2cc(-c3ccsc3)c(-c3ccc([C@]4(N)C[C@H](F)C4)cc3)nn2)CC1 [Example A70]	> 30000 nM
COC(=O)N(C)[C@H]1CC[C@H](CC(=O)Nc2cnc(-c3ccc(C4(N)CCC4)cc3)c(-c3ccccc3)c2)CC1 [Example A1]	4000 nM
CC(=O)N(C)[C@H]1CC[C@H](CC(=O)Nc2cnc(-c3ccc(C(C)(C)N)cc3)c(-c3ccccc3F)c2)CC1 [Example 9]	> 30000 nM
CC(=O)N(C)[C@H]1CC[C@H](CC(=O)Nc2cnc(-c3ccc(C4(N)CC(C)(O)C4)c(F)c3)c(-c3ccccc3)c2)CC1 (stereo partly shown) [Example 124]	> 21000 nM
CC(C)(C)CC(=O)N[C@H]1CC[C@H](CC(=O)Nc2cnc(-c3ccc(C(C)(C)N)cc3)c(-c3ccccc3)c2)CC1 [Example A37]	> 30000 nM
C[C@]1(O)C[C@@](N)(c2ccc(-c3nnc(NC(=O)C[C@H]4CC[C@H](N5CCOC5=O)CC4)nc3-c3ccccc3F)cc2)C1 [Example 68]	6400 nM
CN(C(=O)C1CC1)[C@H]1CC[C@H](CC(=O)Nc2cnc(-c3ccc(C(C)(C)N)cc3)c(-c3ccsc3)c2)CC1 [Example 27]	> 30000 nM
